Listed here: items and their measured inhibition.
- Study Target: UniProt P80365
- Protocol Notes: Inhibition of 11beta-HSD2 in human kidney microsomes using [3H]-cortisol as substrate assessed as formation of cortisone at 100 uM after 30 mins by radiometric analysis relative to control
- Condition Summary: Microsome
Numbers only here, please. The scale is %.

The cases that follow already have their inhibition on record.
C=CCOc1ccc(/C=C/C(=O)/C=C/c2ccc(OCC=C)cc2)cc1
2
COc1cc(/C=C/C(=O)/C=C/c2ccc(OC3CCCCO3)c(OC)c2)ccc1OC1CCCCO1 (centres undefined)
0
COc1cc(/C=C/C(=O)/C=C/c2ccc(O)c(OC)c2)ccc1O
39

Turning now to a further record.
Provide inhibition value for the following compound: CN(C)c1ccc(/C=C2\CCC/C(=C\c3ccc(N(C)C)cc3)C2=O)cc1
21

---

- Study Target: UniProt P50233
- Sequence (P50233 whole entry): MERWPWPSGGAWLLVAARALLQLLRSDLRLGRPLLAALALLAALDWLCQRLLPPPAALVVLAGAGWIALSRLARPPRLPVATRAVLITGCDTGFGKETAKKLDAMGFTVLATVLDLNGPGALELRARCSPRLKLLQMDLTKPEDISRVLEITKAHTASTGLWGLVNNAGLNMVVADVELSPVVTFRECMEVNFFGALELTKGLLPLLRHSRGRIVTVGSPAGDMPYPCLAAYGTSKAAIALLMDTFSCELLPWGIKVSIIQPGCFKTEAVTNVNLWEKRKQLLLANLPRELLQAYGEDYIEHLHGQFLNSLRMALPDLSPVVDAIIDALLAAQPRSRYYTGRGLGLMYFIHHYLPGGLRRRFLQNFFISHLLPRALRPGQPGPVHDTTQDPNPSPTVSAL
- Protocol Notes: Inhibition of 11beta-HSD2 in rat kidney microsomes using [3H]-CORT as substrate assessed as formation of 11-DHC at 100 uM after 30 mins by radiometric analysis relative to control
- Condition Summary: Microsome
Property Label: inhibition (%)
Numbers only here, please. The scale is %.

COc1cc(/C=C2\CCC/C(=C\c3ccc(OC4CCCCO4)c(OC)c3)C2=O)ccc1OC1CCCCO1 (stereo not given)
14
COc1cc(/C=C2\CC/C(=C\c3cc(OC)c(OC)c(OC)c3)C2=O)cc(OC)c1OC
9

Provide inhibition value for the following compound: CCOc1ccc(/C=C/C(=O)/C=C/c2ccc(OCC)cc2)cc1
27

Provide inhibition value for the following compound: CN(C)c1ccc(/C=C2\CCC/C(=C\c3ccc(N(C)C)cc3)C2=O)cc1
20

Provide inhibition value for the following compound: COc1cc(/C=C/C(=O)/C=C/c2cc(OC)c(OC)c(OC)c2)cc(OC)c1OC
11

---

- Study Target: 11-beta-hydroxysteroid dehydrogenase 1 (Rattus norvegicus) (UniProt P16232)
- Sequence (P16232 whole entry, looked up): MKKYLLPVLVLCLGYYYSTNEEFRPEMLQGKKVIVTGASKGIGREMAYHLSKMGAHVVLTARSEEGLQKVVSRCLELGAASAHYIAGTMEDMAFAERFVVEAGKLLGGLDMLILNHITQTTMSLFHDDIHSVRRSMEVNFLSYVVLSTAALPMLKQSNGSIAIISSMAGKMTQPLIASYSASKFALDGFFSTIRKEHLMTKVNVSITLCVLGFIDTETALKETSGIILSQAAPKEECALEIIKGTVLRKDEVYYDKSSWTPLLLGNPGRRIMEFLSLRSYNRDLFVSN
- Protocol Notes: Inhibition of 11beta-HSD1 in rat testis microsomes using [3H]-11-DHC as substrate assessed as formation of CORT at 100 uM after 60 to 90 mins by radiometric analysis relative to control
- Condition Summary: Microsome
Rule: inhibition under 20% gives NO, otherwise YES.

Worked examples, 10 molecules total:
C=CCOc1ccc(/C=C2\CC/C(=C\c3ccc(OCC=C)cc3)C2=O)cc1
NO
CN(C)c1ccc(/C=C/C(=O)/C=C/c2ccc(N(C)C)cc2)cc1
NO
CN(C)c1ccc(/C=C2\CC/C(=C\c3ccc(N(C)C)cc3)C2=O)cc1
NO
O=C1/C(=C/c2ccc(O)cc2)CC/C1=C\c1ccc(O)cc1
YES
CCOc1ccc(/C=C/C(=O)/C=C/c2ccc(OCC)cc2)cc1
NO
COc1cc(/C=C2\CC/C(=C\c3cc(OC)c(OC)c(OC)c3)C2=O)cc(OC)c1OC
NO
C=CCOc1ccc(/C=C2\CCC/C(=C\c3ccc(OCC=C)cc3)C2=O)cc1
NO
O=C1/C(=C/c2cccc(C(F)(F)F)c2F)CC/C1=C\c1cccc(C(F)(F)F)c1F
NO
COc1cc(/C=C2\CC/C(=C\c3ccc(O)c(OC)c3)C2=O)ccc1O
YES
O=C1/C(=C/c2ccc(OC3CCCCO3)cc2)CCC/C1=C\c1ccc(OC2CCCCO2)cc1 (configuration not stated)
YES

For this molecule, is measured inhibition 20% or higher? O=C(/C=C/c1ccc(O)cc1)/C=C/c1ccc(O)cc1
YES

For this molecule, is measured inhibition 20% or higher? CCOc1ccc(/C=C2\CCC/C(=C\c3ccc(OCC)cc3)C2=O)cc1
NO

For this molecule, is measured inhibition 20% or higher? C=CCOc1ccc(/C=C/C(=O)/C=C/c2ccc(OCC=C)c(OC)c2)cc1OC
NO

For this molecule, is measured inhibition 20% or higher? COc1cc(/C=C/C(=O)/C=C/c2cc(OC)c(OC)c(OC)c2)cc(OC)c1OC
NO

For this molecule, is measured inhibition 20% or higher? CN(C)c1ccc(/C=C2\CCC/C(=C\c3ccc(N(C)C)cc3)C2=O)cc1
NO

For this molecule, is measured inhibition 20% or higher? COc1cc(/C=C/C(=O)/C=C/c2ccc(OC3CCCCO3)c(OC)c2)ccc1OC1CCCCO1 (configuration not stated)
NO

For this molecule, is measured inhibition 20% or higher? O=C(/C=C/c1ccc(OC2CCCCO2)cc1)/C=C/c1ccc(OC2CCCCO2)cc1 (configuration not stated)
NO

---

- Study Target: 11-beta-hydroxysteroid dehydrogenase type 2 (Rattus norvegicus)
- Protocol Notes: Inhibition of 11beta-HSD2 in rat kidney microsomes using [3H]-CORT as substrate assessed as formation of 11-DHC at 100 uM after 30 mins by radiometric analysis relative to control
- Condition Summary: Microsome
Listed here: items and their measured inhibition.
Numbers only here, please. The scale is %.

The cases that follow already have their inhibition on record.
COc1cc(/C=C/C(=O)/C=C/c2ccc(O)c(OC)c2)ccc1O
35
O=C1/C(=C/c2ccc(F)cc2)CC/C1=C\c1ccc(F)cc1
9
CCOc1ccc(/C=C2\CC/C(=C\c3ccc(OCC)cc3)C2=O)cc1
10
COc1cc(/C=C2\CC/C(=C\c3ccc(OC4CCCCO4)c(OC)c3)C2=O)ccc1OC1CCCCO1 (stereo not given)
11
CCOc1ccc(/C=C2\CCC/C(=C\c3ccc(OCC)cc3)C2=O)cc1
14

Provide inhibition value for the following molecule: O=C1/C(=C/c2ccc(O)cc2)CCC/C1=C\c1ccc(O)cc1
24

---

- Study Target: 11-beta-hydroxysteroid dehydrogenase type 2 (Homo sapiens) (UniProt P80365)
- Sequence (P80365 whole entry): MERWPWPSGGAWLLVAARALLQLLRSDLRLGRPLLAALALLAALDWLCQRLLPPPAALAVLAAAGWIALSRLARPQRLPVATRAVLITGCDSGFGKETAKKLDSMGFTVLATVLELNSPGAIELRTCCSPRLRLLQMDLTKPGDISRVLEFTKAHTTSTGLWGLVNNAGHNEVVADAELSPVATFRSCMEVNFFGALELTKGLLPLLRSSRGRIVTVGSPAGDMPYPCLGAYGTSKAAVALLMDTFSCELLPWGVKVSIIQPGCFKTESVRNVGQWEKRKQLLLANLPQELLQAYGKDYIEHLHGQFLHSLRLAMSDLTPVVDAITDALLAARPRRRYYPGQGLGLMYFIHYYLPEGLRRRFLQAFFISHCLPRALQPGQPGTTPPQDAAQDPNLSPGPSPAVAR
- Protocol Notes: Inhibition of 11beta-HSD2 in human kidney microsomes using [3H]-cortisol as substrate assessed as formation of cortisone at 100 uM after 30 mins by radiometric analysis relative to control
- Condition Summary: Microsome
Listed here: items and their measured inhibition.

C=CCOc1ccc(/C=C2\CCC/C(=C\c3ccc(OCC=C)cc3)C2=O)cc1
6%
O=C1/C(=C/c2ccc(F)cc2)CC/C1=C\c1ccc(F)cc1
26%

Provide inhibition value for the following molecule: CCOc1ccc(/C=C2\CC/C(=C\c3ccc(OCC)cc3)C2=O)cc1
6%

Provide inhibition value for the following molecule: O=C1/C(=C/c2ccc(OC3CCCCO3)cc2)CCC/C1=C\c1ccc(OC2CCCCO2)cc1 (stereo unspecified)
17%

Provide inhibition value for the following molecule: CN(C)c1ccc(/C=C/C(=O)/C=C/c2ccc(N(C)C)cc2)cc1
0%

Provide inhibition value for the following molecule: C=CCOc1ccc(/C=C/C(=O)/C=C/c2ccc(OCC=C)c(OC)c2)cc1OC
13%

Provide inhibition value for the following molecule: O=C(/C=C/c1ccccc1Br)/C=C/c1ccccc1Br
53%

---

Listed here: items and their measured log10 of IC50.
- Study Target: 11-beta-hydroxysteroid dehydrogenase 1 (Homo sapiens)
- Protocol Notes: Inhibition of 11beta-HSD1 in human liver microsomes using [3H]-cortisone as substrate assessed as formation of cortisol after 60 to 90 mins by radiometric analysis
- Parameters: species or system Microsome
- Sequence (P28845 whole entry): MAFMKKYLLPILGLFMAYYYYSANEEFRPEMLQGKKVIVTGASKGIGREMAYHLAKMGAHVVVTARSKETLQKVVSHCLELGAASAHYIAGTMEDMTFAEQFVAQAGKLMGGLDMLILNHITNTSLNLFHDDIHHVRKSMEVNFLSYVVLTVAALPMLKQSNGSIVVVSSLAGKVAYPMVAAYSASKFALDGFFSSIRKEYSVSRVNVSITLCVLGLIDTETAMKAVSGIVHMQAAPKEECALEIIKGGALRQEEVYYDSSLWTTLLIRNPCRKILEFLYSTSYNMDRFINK
Transform log10 | Measure IC50 | Unit µM

The cases that follow already have their log10 of IC50 on record.
O=C1/C(=C/c2ccccc2Br)CC/C1=C\c1ccccc1Br
0.79
COc1cc(/C=C/C(=O)CC(=O)/C=C/c2ccc(O)c(OC)c2)ccc1O [CURCUMIN]
1.20
COc1cc(/C=C/C(=O)/C=C/c2ccc(O)c(OC)c2)ccc1O
1.85

Provide log10 of IC50 value for the following compound: O=C1/C(=C/c2ccc(F)cc2)CC/C1=C\c1ccc(F)cc1
1.24

Provide log10 of IC50 value for the following compound: O=C1/C(=C/c2ccccc2Br)CCC/C1=C\c1ccccc1Br
0.05

---

- Study Target: 11-beta-hydroxysteroid dehydrogenase 1 (Rattus norvegicus)
- Protocol Notes: Inhibition of 11beta-HSD1 in Sprague-Dawley rat leydig cells […] relative to control
- Condition Summary: 100 uM
Listed here: items and their measured inhibition.
Numbers only here, please. The scale is %.

C=CCOc1ccc(/C=C2\CC/C(=C\c3ccc(OCC=C)c(OC)c3)C2=O)cc1OC
17
CCOc1ccc(/C=C2\CCC/C(=C\c3ccc(OCC)cc3)C2=O)cc1
26
COc1cc(/C=C2\CC/C(=C\c3ccc(O)c(OC)c3)C2=O)ccc1O
19

Provide inhibition value for the following compound: COc1cc(/C=C2\CC/C(=C\c3cc(OC)c(OC)c(OC)c3)C2=O)cc(OC)c1OC
18

---

Listed here: items and their measured inhibition.
- Study Target: 11-beta-hydroxysteroid dehydrogenase 1 (Homo sapiens, UniProt P28845)
- Protocol Notes: Inhibition of 11beta-HSD1 in human liver microsomes using [3H]-cortisone as substrate assessed as formation of cortisol at 100 uM after 60 to 90 mins by radiometric analysis relative to control
- Condition Summary: Microsome
- Sequence (P28845 whole entry, looked up): as the sequence (P28845 whole entry) above
Numbers only here, please. The scale is %.

The cases that follow already have their inhibition on record.
CCOc1ccc(/C=C2\CCC/C(=C\c3ccc(OCC)cc3)C2=O)cc1
17
COc1cc(/C=C2\CC/C(=C\c3ccc(OC4CCCCO4)c(OC)c3)C2=O)ccc1OC1CCCCO1 (stereo not drawn)
26

Provide inhibition, recorded with 11-beta-hydroxysteroid dehydrogenase 1 (Homo sapiens, UniProt P28845), of COc1cc(/C=C/C(=O)/C=C/c2ccc(OC3CCCCO3)c(OC)c2)ccc1OC1CCCCO1 (stereo not drawn)
28

Provide inhibition, recorded with 11-beta-hydroxysteroid dehydrogenase 1 (Homo sapiens, UniProt P28845), of COc1cc(/C=C2\CCC/C(=C\c3ccc(OC4CCCCO4)c(OC)c3)C2=O)ccc1OC1CCCCO1 (stereo not drawn)
37

Sourced from ChEMBL document CHEMBL2401685
